Test system: cocklebur
Procedure Summary: Test B preemergence/postemergence greenhouse plant response rating 0 to 10
Format: in vivo, Xanthium pensylvanicum
Condition: Rate 200 g/ha, PREEMERGENCE; 0 to 10 scale
Measure: Plant response rating, Cocklebur
Answer with the value's number alone.

Past entries and their recorded results:
CCCOc1cc(-c2nn3c(c2Cl)CCCC3)c(F)cc1Cl = 8
COC(=O)c1cc(-c2nn3c(c2Cl)CCCC3)c(F)cc1Cl = 0
C=CCN1C(=O)COc2cc(F)c(-c3nn4c(c3Br)CCCC4)cc21 = 5

GET /value?item= CC(C)OC(=O)c1cc(-c2nn3c(c2Cl)CCCC3)c(F)cc1Cl &field=Plant response rating, Cocklebur returns 9

GET /value?item= CC(C)COc1cc(-c2nn3c(c2Cl)CCCC3)c(F)cc1Cl &field=Plant response rating, Cocklebur returns 4

GET /value?item= Fc1cc(Cl)c(OCCCl)cc1-c1nn2c(c1Cl)CCCC2 &field=Plant response rating, Cocklebur returns 0

GET /value?item= CC(C)OC(=O)COc1cc(-c2nn3c(c2Cl)CCCC3)c(F)cc1Cl &field=Plant response rating, Cocklebur returns 1

GET /value?item= Clc1ccc(-c2nc3n(c2Cl)CCC=C3)c(Cl)c1 &field=Plant response rating, Cocklebur returns 0
